- PROTOCOL DESCRIPTION: in vitro
- CONDITION SUMMARY: rat, gh3-tre-luc cells, AC50 (uM) modified / 1000, Tox21_110001=Tox21_110149; viability, 1 nM T3 present, 24 h
ASSAY READOUT: CC50 at 24 h

In: Answer with the recorded CC50 at 24 h for the compound listed here: CCCCc1ccc(C(=O)O)nc1
Out: > 50 µM

###

- PROTOCOL DESCRIPTION: in vitro
- CONDITION SUMMARY: rat, gh3-tre-luc cells, AC50 (uM) modified / 1000
ASSAY READOUT: CC50 at 24 h (µM)
Hi! Could you send only the number? It should be in µM, unit omitted.

In: Answer with the recorded CC50 at 24 h for the molecule listed here: COc1ccc(-c2ccccc2)cc1NNC(=O)OC(C)C [Bifenazate]
Out: 87.4

In: Answer with the recorded CC50 at 24 h for the molecule listed here: N=c1ccn2c(n1)O[C@H]1[C@H](O)[C@@H](CO)O[C@H]12
Out: 1.45

Data provenance is paper PMC6792352.
